Attribution: patent EP4775582A1

# Tested on: NCI-H441 cells
# assay: 3D cell proliferation assay (CellTiter Glo-3D), NCI-H441
# Type: cell-based, human
# experimental_context: Homo sapiens, 120 h, NCI-H441 cells (KRAS G12V), 2% FBS, 5 days, read-out: H441 AP IC50
pIC50: −log10 of the molar value.
Consider the following compounds and their measured pIC50 readings.

| compound | pIC50 |
| --- | --- |
| COCCn1c(-c2cc(C#CCN3CCC(C#N)(CO)CC3)cnc2[C@H](C)OC)c2c3cc(ccc31)-c1csc(n1)C[C@H](NC(=O)[C@H]1[C@@H]3COC[C@@H]31)C(=O)N1CCC[C@H](N1)C(=O)OCC(C)(C)C2 (atropisomer, axis not shown) | 9.40 |
| CCn1c(-c2cc(C#CCN3CCN(C(=O)CN)CC3)cnc2[C@H](C)OC)c2c3cc(ccc31)-c1csc(n1)[C@@H](OCCN(C)C)[C@H](NC(=O)[C@H]1[C@H](C)[C@@H]1C)C(=O)N1CCC[C@H](N1)C(=O)OCC(C)(C)C2 (atropisomer, axis not shown; (Ra)) | 7.61 |
| COCCn1c(-c2cc(C#CCN3CCN(C(=O)CO)CC3)c[n+]([O-])c2[C@H](C)OC)c2c3cc(ccc31)-c1csc(n1)C[C@H](NC(=O)[C@H]1[C@H](C)[C@@H]1C)C(=O)N1CCC[C@H](N1)C(=O)OCC(C)(C)C2 (atropisomer, axis not shown; (Ra)) | 8.33 |
| CCn1c(-c2cc(C#CCN3CCN(C(=O)CNC)CC3)cnc2[C@H](C)OC)c2c3cc(ccc31)-c1csc(n1)C[C@H](NC(=O)[C@H]1[C@@H]3COC[C@@H]31)C(=O)N1CCC[C@H](N1)C(=O)OCC(C)(C)C2 (atropisomer, axis not shown; (Ra)) | 8.69 |

###

# target_system: KRAS WT-cRAF (Homo sapiens, UniProt P01116+P62937)
# Sequence (P01116 1-188 isoform P01116-2): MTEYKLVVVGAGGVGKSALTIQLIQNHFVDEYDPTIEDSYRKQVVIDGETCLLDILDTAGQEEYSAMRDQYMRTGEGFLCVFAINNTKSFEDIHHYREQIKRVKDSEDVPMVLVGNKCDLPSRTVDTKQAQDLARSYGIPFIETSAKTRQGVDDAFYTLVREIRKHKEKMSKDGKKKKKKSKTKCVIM
# Sequence (P62937 whole entry): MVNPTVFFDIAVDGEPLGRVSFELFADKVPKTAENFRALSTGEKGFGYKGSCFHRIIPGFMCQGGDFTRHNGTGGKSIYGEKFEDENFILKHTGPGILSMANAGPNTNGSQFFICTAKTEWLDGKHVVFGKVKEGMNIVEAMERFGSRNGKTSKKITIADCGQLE
# assay: Assay for binding of KRAS to cRAF (HTRF, with Cyclophilin A), KRAS WT
# experimental_context: KRAS WT-cRAF binding assay(nM), GPPNP-KRAS WT, IC50 values

| compound | endpoint_unit | IC50 |
| --- | --- | --- |
| CCn1c(-c2cc(C#CC(CO)N3CCS(=O)(=O)CC3)cnc2C(C)OC)c2c3cc(ccc31)-c1csc(n1)CC(NC(=O)C1C3COCC31)C(=O)N1CCCC(N1)C(=O)OCC(C)(C)C2 (atropisomer, axis not shown; (Ra)) [Compound Z40] | nM | 14.3 |
| CCn1c(-c2cc(C#CCN3CCS(=O)(=O)CC3)cnc2C(C)OC)c2c3cc(ccc31)-c1csc(n1)CC(NC(=O)C1C(C)C1C(=O)NCCO)C(=O)N1CCCC(N1)C(=O)OCC(C)(C)C2 (atropisomer, axis not shown; (Ra)) [Compound Z13-2] | nM | 22.6 |
| CCn1c(-c2cc(C#CCN3CCC(C#N)CC3)cnc2C(C)OC)c2c3cc(ccc31)-c1coc(n1)CC(NC(=O)C1C3COCC31)C(=O)N1CCCC(N1)C(=O)OCC(C)(C)C2 (atropisomer, axis not shown; (Ra)) [Compound Z168] | nM | 16.4 |
| COCCn1c(-c2cc(C#CCN3CCC(C#N)(CO)CC3)c[n+]([O-])c2C(C)OC)c2c3cc(ccc31)-c1csc(n1)CC(NC(=O)C1C(C)C1C)C(=O)N1CCCC(N1)C(=O)OCC(C)(C)C2 (atropisomer, axis not shown; (Ra)) [Compound Z42-1] | nM | 18.9 |
